- Tested on: LXRb homodimer (NR concentration 270 nM)
- protocol.details: PBM binding z-score (relative to random genomic background probes); higher = stronger binding; sequences stand for … in GC…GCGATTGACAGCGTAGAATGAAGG
Quick rule for you: PBM binding z-score at -0.1 or higher means T, lower means F.

These solved cases illustrate the format of a correct answer.
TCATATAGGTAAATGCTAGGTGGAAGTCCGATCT F
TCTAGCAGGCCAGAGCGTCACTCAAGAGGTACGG F
CCTTACGGGTCAAGATTATAGCACGGGTGGTACG T
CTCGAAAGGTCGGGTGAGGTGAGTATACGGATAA T

Determine whether this sequence has PBM binding z-score no lower than -0.1: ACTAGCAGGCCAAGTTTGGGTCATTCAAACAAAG F

Let us now turn to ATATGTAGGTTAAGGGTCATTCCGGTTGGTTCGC T

Let us now turn to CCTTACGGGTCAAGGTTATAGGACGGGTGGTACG T

Let us now turn to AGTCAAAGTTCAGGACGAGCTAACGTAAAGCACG T

Let us now turn to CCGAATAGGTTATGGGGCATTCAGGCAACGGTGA F

====

- Tested on: THRa homodimer (NR concentration 90 nM)
- protocol.details: PBM binding z-score (relative to random genomic background probes); higher = stronger binding; sequences stand for … in GC…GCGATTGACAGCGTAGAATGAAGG
Class (required): determined from PBM binding z-score; valid ranges are lower range: < -0.2; middle range: ≥ -0.2 and < 0.5; upper range: ≥ 0.5

Sort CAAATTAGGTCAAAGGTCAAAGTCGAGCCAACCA into one of the categories. upper range

Let us now turn to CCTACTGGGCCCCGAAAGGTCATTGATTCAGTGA upper range

====

- Tested on: PPARg:RXRa 270nM:90nM, anti-RXR (NR concentration 270 nM, RXRa partner concentration 90 nM)
- protocol.details: PBM binding z-score (relative to random genomic background probes); higher = stronger binding; sequences stand for … in GC…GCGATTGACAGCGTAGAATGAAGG
Quick rule for you: PBM binding z-score at 4 or higher means criterion met, lower means criterion not met.

These solved cases illustrate the format of a correct answer.
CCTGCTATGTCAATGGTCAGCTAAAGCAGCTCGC criterion not met
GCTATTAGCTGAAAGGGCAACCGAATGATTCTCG criterion not met
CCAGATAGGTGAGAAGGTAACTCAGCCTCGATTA criterion not met
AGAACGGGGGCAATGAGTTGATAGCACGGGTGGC criterion met
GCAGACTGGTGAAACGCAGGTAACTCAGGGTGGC criterion not met

Determine whether this sequence has PBM binding z-score no lower than 4: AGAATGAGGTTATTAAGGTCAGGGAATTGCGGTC criterion met

Let us now turn to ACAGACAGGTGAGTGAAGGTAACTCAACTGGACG criterion not met

Let us now turn to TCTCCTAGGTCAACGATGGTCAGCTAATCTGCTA criterion not met

Let us now turn to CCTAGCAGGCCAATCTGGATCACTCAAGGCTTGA criterion not met

====

I'd appreciate it if you could supply PBM binding z-score values for the items below.
- Tested on: RXRa homodimer (NR concentration 180 nM)
- protocol.details: PBM binding z-score (relative to random genomic background probes); higher = stronger binding; sequences stand for … in GC…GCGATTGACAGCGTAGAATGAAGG
Answers are plain numbers.

Answered cases to consult:
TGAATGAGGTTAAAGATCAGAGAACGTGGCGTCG 3.86
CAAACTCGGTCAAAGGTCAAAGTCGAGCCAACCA 9.27
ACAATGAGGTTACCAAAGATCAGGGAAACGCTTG 2.9
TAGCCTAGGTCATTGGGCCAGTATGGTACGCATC 2.73
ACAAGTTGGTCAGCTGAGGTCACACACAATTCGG 4.19

# per-item lookup of PBM binding z-score; items listed below
1. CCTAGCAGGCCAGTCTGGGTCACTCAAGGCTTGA
2. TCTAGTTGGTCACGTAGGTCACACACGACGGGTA
3. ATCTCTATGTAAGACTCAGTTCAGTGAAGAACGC
4. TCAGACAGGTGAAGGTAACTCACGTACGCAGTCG
5. CCTTACGGGTCACTGACAGGTTATTGCATTTGGA
6. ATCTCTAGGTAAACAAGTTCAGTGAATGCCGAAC
7. CCTAATTGGTCAGGAGGTCACACACCGGATATGA

[1.05, 2.91, -0.183, 0.939, 5.07, 0.385, 4.88]

====

- System: PPARg homodimer (NR concentration 180 nM)
- protocol.details: PBM binding z-score (relative to random genomic background probes); higher = stronger binding; sequences stand for … in GC…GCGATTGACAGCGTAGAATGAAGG
observable: PBM binding z-score

Answered cases to consult:
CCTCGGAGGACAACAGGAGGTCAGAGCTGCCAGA 1.72
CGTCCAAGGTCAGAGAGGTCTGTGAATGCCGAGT 2.09
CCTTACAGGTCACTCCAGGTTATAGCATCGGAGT 2.41
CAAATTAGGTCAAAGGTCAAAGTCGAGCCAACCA 6.21
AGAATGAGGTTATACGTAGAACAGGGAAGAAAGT 1.26

# per-item lookup of PBM binding z-score; items listed below
1. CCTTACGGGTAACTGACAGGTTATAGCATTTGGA
2. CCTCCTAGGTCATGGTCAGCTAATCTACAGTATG
3. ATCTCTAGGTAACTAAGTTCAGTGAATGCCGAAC
4. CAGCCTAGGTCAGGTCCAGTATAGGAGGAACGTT

0.529
1.57
1.29
0.577

# per-item lookup of PBM binding z-score; items listed below
1. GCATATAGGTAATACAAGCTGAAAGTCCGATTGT
2. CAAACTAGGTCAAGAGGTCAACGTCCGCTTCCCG
3. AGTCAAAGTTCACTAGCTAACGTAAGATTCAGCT
4. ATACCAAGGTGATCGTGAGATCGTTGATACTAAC
5. GCGGCTAGGTCAACTGATGGTCAGCTAAAGCTCG

[0.219, 8.6, 1.85, 0.145, 1.76]

# returns recorded PBM binding z-score (system: PPARg homodimer (NR concentration 180 nM)) for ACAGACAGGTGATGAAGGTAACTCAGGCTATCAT 0.146

====

- Test system: RARb:RXRa (NR concentration 270 nM, RXRa partner concentration 90 nM)
- protocol.details: PBM binding z-score (relative to random genomic background probes); higher = stronger binding; sequences stand for … in GC…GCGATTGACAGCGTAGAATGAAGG
I'd appreciate it if you could supply PBM binding z-score values for the items below.
Give bare numbers.

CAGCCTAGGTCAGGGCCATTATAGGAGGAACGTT 3.45

# per-item lookup of PBM binding z-score; items listed below
1. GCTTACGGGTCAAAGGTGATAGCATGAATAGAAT
2. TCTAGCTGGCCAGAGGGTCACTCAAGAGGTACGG
3. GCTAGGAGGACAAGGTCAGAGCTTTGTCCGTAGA
4. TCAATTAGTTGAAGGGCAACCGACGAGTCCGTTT
5. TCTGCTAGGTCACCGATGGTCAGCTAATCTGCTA

1: 4.09; 2: 1.73; 3: 3.41; 4: 1.54; 5: 4.36

# per-item lookup of PBM binding z-score; items listed below
1. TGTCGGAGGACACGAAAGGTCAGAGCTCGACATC
2. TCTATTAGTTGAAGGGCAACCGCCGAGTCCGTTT
3. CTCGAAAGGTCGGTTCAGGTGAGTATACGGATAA

[4.31, 1.74, 2.96]

# per-item lookup of PBM binding z-score; items listed below
1. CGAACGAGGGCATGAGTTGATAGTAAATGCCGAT
2. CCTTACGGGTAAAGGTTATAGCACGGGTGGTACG
3. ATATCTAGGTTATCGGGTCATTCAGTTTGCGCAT
4. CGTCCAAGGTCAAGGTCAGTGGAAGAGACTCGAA
5. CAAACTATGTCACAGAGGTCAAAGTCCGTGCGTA
6. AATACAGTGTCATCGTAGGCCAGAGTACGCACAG
7. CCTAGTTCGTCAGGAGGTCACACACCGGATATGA
8. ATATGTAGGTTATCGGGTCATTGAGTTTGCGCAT

1: 1.94; 2: 1.82; 3: 2.89; 4: 5.61; 5: 4.19; 6: 1.21; 7: 3.76; 8: 2.86

# per-item lookup of PBM binding z-score; items listed below
1. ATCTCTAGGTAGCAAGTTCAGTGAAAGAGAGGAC
2. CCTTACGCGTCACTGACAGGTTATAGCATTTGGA
3. CAAACTAGGTCACGAAAGGTCAAAGTAGAATGAC

1. 0.981
2. 0.243
3. 5.71
